For each entry below, report its TGI value.
tested on: HCT-15 colon; assay: NCI tumour cell line growth inhibition, 48 h
Record the value in µM, omitting the unit from your answer.

Value sought: TGI, system HCT-15 colon, item Cn1c2c([N+](=O)[O-])[se]nc2c(=O)n1-c1ccc([N+](=O)[O-])cc1 . Result: 2.73

Value sought: TGI, system HCT-15 colon, item C=C(C=O)C1CC(=O)C(C(=O)OC)[C@@H]2O[C@@](C)(CC2=O)C[C@@H]2OC(=O)[C@]3(O[C@@H]23)[C@@H](C(=O)OC)C1 (stereo not given in full) . Result: 38.5

Value sought: TGI, system HCT-15 colon, item Cn1c2ccccc2c(=Nc2ccccc2)c2c3ccccc3[nH]c21 . Result: 3.49

Value sought: TGI, system HCT-15 colon, item O=C1c2ccccc2C(=O)c2c(NCCCNCCO)ccc(NCCCNCCO)c21 . Result: 29.8
